# target or test system: MtrF (Neisseria gonorrhoeae, UniProt Q9RNX2, W420A)
# test summary: biochemical
pKd: −log10 of the molar value.
readout name: pKd

INSERT INTO measurements (smiles_structure, value_observed) VALUES
  ('Nc1ccc(S(=O)(=O)Nc2ncccn2)cc1', 3.98),
  ('Cc1cc(C)nc(NS(=O)(=O)c2ccc(N)cc2)n1', 4.97),
  ('Nc1ccc(S(=O)(=O)Nc2nccs2)cc1', 4.29),
  ('Nc1ccc(C(=O)O)cc1', 4.39);

---

# target or test system: MtrF (Neisseria gonorrhoeae)
readout name: Kd (nM)

INSERT INTO measurements (smiles_structure, u, value_observed) VALUES
  ('Nc1ccc(C(=O)O)cc1', 'nM', 540),
  ('Cc1cc(C)nc(NS(=O)(=O)c2ccc(N)cc2)n1', 'nM', 330),
  ('Nc1ccc(S(=O)(=O)Nc2nccs2)cc1', 'nM', 1520),
  ('Nc1ccc(S(=O)(=O)Nc2ncccn2)cc1', 'nM', 12700);
